- tested-on: SIRT1 (Homo sapiens, UniProt Q96EB6)
- Sequence (Q96EB6 whole entry): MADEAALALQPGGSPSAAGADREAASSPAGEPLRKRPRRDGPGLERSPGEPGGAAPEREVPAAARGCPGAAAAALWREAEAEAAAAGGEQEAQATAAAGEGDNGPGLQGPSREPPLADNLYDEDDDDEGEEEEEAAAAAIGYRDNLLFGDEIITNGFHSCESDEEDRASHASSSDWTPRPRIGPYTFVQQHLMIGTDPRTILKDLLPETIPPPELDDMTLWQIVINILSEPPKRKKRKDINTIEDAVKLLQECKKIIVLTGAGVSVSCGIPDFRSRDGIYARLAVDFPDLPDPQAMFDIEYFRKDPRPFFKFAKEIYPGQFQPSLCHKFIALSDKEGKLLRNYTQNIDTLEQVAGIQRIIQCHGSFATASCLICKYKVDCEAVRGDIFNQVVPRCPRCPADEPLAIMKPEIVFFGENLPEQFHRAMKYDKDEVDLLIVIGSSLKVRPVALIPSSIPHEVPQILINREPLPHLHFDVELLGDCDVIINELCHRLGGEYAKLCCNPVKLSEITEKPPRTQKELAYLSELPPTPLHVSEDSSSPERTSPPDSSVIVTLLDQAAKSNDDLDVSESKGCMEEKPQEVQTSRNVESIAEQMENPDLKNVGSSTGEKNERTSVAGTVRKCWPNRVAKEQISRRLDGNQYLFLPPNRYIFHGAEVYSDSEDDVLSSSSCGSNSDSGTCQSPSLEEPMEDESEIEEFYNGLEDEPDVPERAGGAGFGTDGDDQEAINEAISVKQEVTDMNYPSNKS
- measurement-description: Trp mass spectrometry assay (SIRT1 activation)
- Format: biochemical
- measurement-conditions: concentration of test compound that results in 150% activation of SIRT1; Trp peptide substrate
parameter-measured: Tryp AVG EC1.5 (μM)

Use the examples below as a reference point.
molecule	tested-on	Tryp AVG EC1.5 (μM)
COc1cc(NC(=O)N2c3nc(-c4cccc(C(F)(F)F)c4)ccc3N3CCC[C@@H]2C3)ncn1	SIRT1 (Homo sapiens, UniProt Q96EB6)	A (EC1.5<1 μM)
O=C(Nc1ccncn1)N1c2nc(-c3cccnc3)ccc2N2CCC[C@H]1C2	SIRT1 (Homo sapiens, UniProt Q96EB6)	B (EC1.5 1-25 μM)
O=C(Nc1ccccn1)N1c2nc(-c3cccc(Cl)c3)ccc2N2CCC1CC2	SIRT1 (Homo sapiens, UniProt Q96EB6)	B (EC1.5 1-25 μM)
O=C(Nc1ccncn1)N1c2nc(N3CCCN(CC(F)(F)F)CC3)ccc2N2CCC[C@H]1C2	SIRT1 (Homo sapiens, UniProt Q96EB6)	A (EC1.5<1 μM)
O=C(Nc1cnccn1)N1c2nc(-c3cncc(Cl)c3)ccc2N2CCC[C@H]1C2	SIRT1 (Homo sapiens, UniProt Q96EB6)	A (EC1.5<1 μM)

Q) Quick one: Tryp AVG EC1.5 (μM) of "Cc1cc(-c2ccc3c(n2)N(C(=O)Nc2cnc(OC[C@@H](O)CO)cn2)[C@H]2CCN3C2)ccn1" ?
A) B (EC1.5 1-25 μM)

Q) Quick one: Tryp AVG EC1.5 (μM) of O=C(Nc1nccs1)N1c2nc(N3CCCC(C(F)(F)F)C3)ccc2N2CCC[C@@H]1C2 (stereo partly shown) ?
A) B (EC1.5 1-25 μM)

Q) Quick one: Tryp AVG EC1.5 (μM) of "O=C(Nc1cncc(F)c1)N1c2nc(-c3cccc(N4CC[C@H](F)C4)c3)ccc2N2CC[C@H]1C2" ?
A) A (EC1.5<1 μM)

Q) Quick one: Tryp AVG EC1.5 (μM) of "Cc1ccc(-c2ccc3c(n2)N(C(=O)Nc2ccccn2)[C@H]2CCN3C2)cn1" ?
A) B (EC1.5 1-25 μM)

Q) Quick one: Tryp AVG EC1.5 (μM) of "CC(C)(C)OC(=O)NCc1ccc(NC(=O)N2c3nc(-c4cccc(C(F)(F)F)c4)ccc3N3CCC[C@H]2C3)cc1" ?
A) A (EC1.5<1 μM)
